Cited source: paper PMC6051491

# target.under.test: T1, KODBR3thumb Pol (Thermococcus kodakarensis / BR3 chimera, UniProt P77933 1-406+767-851+1389-1479+A0A133VA65:621-805, internal_change)
# T1 sequence: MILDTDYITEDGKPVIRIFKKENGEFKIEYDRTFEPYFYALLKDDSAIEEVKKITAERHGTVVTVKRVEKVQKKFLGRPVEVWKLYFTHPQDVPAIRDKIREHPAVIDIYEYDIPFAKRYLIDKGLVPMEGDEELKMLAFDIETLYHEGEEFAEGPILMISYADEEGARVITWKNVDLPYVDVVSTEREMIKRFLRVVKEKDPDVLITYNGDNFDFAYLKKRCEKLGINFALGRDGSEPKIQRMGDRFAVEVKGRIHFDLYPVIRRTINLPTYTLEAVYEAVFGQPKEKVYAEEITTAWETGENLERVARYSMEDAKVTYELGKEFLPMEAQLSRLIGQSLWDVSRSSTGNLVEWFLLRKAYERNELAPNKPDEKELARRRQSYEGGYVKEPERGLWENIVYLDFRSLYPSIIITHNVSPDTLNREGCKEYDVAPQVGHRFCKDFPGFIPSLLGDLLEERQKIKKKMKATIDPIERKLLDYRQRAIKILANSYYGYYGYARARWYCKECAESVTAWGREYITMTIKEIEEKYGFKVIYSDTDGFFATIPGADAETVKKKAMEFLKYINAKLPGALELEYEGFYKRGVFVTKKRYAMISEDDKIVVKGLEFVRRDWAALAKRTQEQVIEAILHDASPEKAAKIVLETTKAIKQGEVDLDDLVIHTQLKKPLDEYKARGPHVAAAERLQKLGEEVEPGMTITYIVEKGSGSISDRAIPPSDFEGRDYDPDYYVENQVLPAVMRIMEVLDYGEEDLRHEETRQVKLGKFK
# protocol.notes: SPR; 100 mM NaCl; SPR (Biacore T100, SA chip, steady state): 20 mM Tris-HCl pH 8.8, 10 mM (NH4)2SO4, 0.1% Triton X-100, 100 or 300 mM NaCl; temperature not stated
# test.settings: protein: recombinant; label: 3' biotin on template (immobilized); primer pairs with template 3' end; 5' overhang 23 nt of template
pKd: −log10 of the molar value.
observable: pKd

1) primer/template (mixed) DNA 1: GAGGTGGCGTCGGGTGGACGGGTGGATTGAAATTTAGGCTGGCAC DNA 2: GTGCCAGCCTAAATTTCAATCC: 7.90
